Test system: stable HCV 1a RLuc replicon cells (genotype 1a H77 replicon)
EXPERIMENT: microbe, parasite or virus in culture
Format: cell-based
APPLIED_CONDITIONS: Hepatitis C virus, read-out: 1a (nM)
We label by threshold. Values of EC50 strictly beneath 0.01 nM are satisfied. Values of 0.01 nM and up are not satisfied.

Illustrative cases are given below, each with its answer.
1) COC(=O)N[C@H](C(=O)N1[C@@H](C)CC[C@H]1c1ncc(-c2ccc3c(c2)COc2cc4c(ccc5nc([C@@H]6C[C@H](C)CN6C(=O)[C@@H](NC(=O)OC)[C@@H](C)OC)[nH]c54)cc2-3)[nH]1)C(C)C [Example NL] :: not satisfied
2) COC[C@H]1C[C@@H](c2nc3ccc4cc5c(cc4c3[nH]2)OCc2cc(-c3ccc4nc([C@@H]6CCCN6C(=O)[C@@H](NC(=O)OC)C(C)C)[nH]c4c3)ccc2-5)N(C(=O)[C@H](NC(=O)OC)c2ccccc2)C1 [Example MS] :: satisfied
3) COC(=O)N[C@H](C(=O)N1[C@@H](C)CC[C@H]1c1ncc(-c2ccc3c(c2)COc2cc4c(ccc5nc([C@@H]6C[C@H](C)CN6C(=O)[C@H](NC(=O)OC)c6ccccc6)[nH]c54)cc2-3)[nH]1)C(C)C [Compound 617] :: satisfied
4) COC[C@H]1C[C@@H](c2nc3ccc4cc5c(cc4c3[nH]2)OCc2cc(-c3cnc([C@@H]4C[C@H](C)CN4C(=O)[C@H](NC(=O)OC)c4ccccc4)[nH]3)ccc2-5)N(C(=O)[C@@H](NC(=O)OC)C(C)C)C1 [Example PF] :: not satisfied
5) COC[C@H]1C[C@@H](c2nc3ccc4cc5c(cc4c3[nH]2)OCc2cc(-c3cnc([C@@H]4C[C@H](C)CN4C(=O)[C@@H](NC(=O)OC)[C@@H](C)OC)[nH]3)ccc2-5)N(C(=O)[C@@H](NC(=O)OC)[C@@H](C)OC)C1 [Example NK] :: not satisfied

Inquiry: Please state whether EC50 is below 0.01 nM for COC(=O)N[C@H](C(=O)N1[C@H](c2nc3ccc4cc5c(cc4c3[nH]2)OCc2cc(-c3cnc(C4CCCN4C(=O)[C@@H](NC(=O)OC)C4CCOCC4)[nH]3)ccc2-5)C[C@@H]2CCC[C@@H]21)C(C)C (some centres unmarked) [Example PP]
Reply text: not satisfied

Inquiry: API: query returns whether the compound falls strictly under 0.01 nM in EC50. Query: COC[C@H]1C[C@@H](c2nc3c([nH]2)-c2cc4c(cc2CC3)-c2ccc(-c3cnc([C@@H]5CC[C@H](C)N5C(=O)[C@@H](NC(=O)OC)C(C)C)[nH]3)cc2CO4)N(C(=O)[C@H](NC(=O)OC)c2ccccc2)C1 [Example OP]
Reply text: not satisfied

Inquiry: Strictly below 0.01 nM: is that where EC50 of COC[C@H]1C[C@@H](c2ncc(-c3ccc4c(c3)COc3cc5c(ccc6nc([C@@H]7CC[C@H](C)N7C(=O)[C@@H](NC(=O)OC)C(C)C)[nH]c65)cc3-4)[nH]2)N(C(=O)[C@@H](NC(=O)OC)C(C)C)C1 [Example PZ] sits?
Reply text: satisfied

###

Test system: NS5A chimeric genotype 2a JFH-1 replicon with genotype 2a J6 strain NS5A gene (M31 present)
EXPERIMENT: microbe, parasite or virus in culture
Assay type: cell-based, HCV
APPLIED_CONDITIONS: Hepatitis C virus, read-out: 2a J6
Procedure: Evaluation of Cell-Based Anti-HCV Activity: Antiviral potency (EC50) was determined using a Renilla luciferase (RLuc)-based HCV replicon reporter assay. […] 72 hours later, cells were lysed and Renilla luciferase activity quantified as recommended by the manufacturer (Promega-Madison, Wis.). […]
Below: a set of entries, each annotated with reported EC50.

1. COC[C@H]1C[C@@H](c2ncc(-c3ccc4c(c3)COc3cc5c(ccc6nc([C@@H]7CCCN7C(=O)[C@H](NC(=O)OC)c7ccccc7)[nH]c65)cc3-4)[nH]2)N(C(=O)[C@@H](NC(=O)OC)[C@@H](C)OC)C1 [Compound 626] :: < 1 nM

Inquiry: Give the measured EC50 for COC(=O)N[C@H](C(=O)N1CCC[C@H]1c1nc2c(ccc3cc4c(cc32)OCc2cc(-c3cnc([C@@H]5CCCN5C(=O)[C@H](NC(=O)OC)c5ccccc5)[nH]3)ccc2-4)[nH]1)C(C)C [Example MD]
Reply text: < 1 nM

###

Tested on: stable HCV 1a RLuc replicon cells (genotype 1a H77 replicon)
EXPERIMENT: microbe, parasite or virus in culture
Assay type: cell-based
APPLIED_CONDITIONS: Hepatitis C virus, read-out: 1a
pEC50: −log10 of the molar value.
ASSAY_ENDPOINT: pEC50

1. COC[C@H]1C[C@@H](c2ncc(-c3ccc4c(c3)COc3cc5c(ccc6nc([C@@H]7CC[C@H](C)N7C(=O)[C@@H](NC(=O)OC)C(C)C)[nH]c65)cc3-4)[nH]2)N(C(=O)[C@H](NC(=O)OC)c2ccccc2)C1 :: > 9.00

Turning now to a further compound:
Inquiry: Annotate the compound `COC[C@H]1C[C@@H](c2ncc(-c3ccc4c(c3)COc3cc5c(ccc6nc([C@@H]7CCCN7C(=O)[C@H](NC(=O)OC)c7ccccc7)[nH]c65)cc3-4)[nH]2)N(C(=O)[C@@H](NC(=O)OC)[C@@H](C)OC)C1` with its measured pEC50.
Reply text: > 9.00

###

System: NS5A chimeric genotype 2a JFH-1 replicon with genotype 2b MD2b-1 strain NS5A gene (M31 present)
EXPERIMENT: microbe, parasite or virus in culture
Type: cell-based, HCV
APPLIED_CONDITIONS: Hepatitis C virus, read-out: 2b (t) (nM)
ASSAY_ENDPOINT: EC50 (nM)
Quick reminder: number only, in nM, skip the unit.

// below: answered compounds
1) CC[C@H](C)[C@H](NC(=O)OC)C(=O)N1[C@@H](C)CC[C@H]1c1ncc(-c2ccc3c(c2)COc2cc4c(ccc5nc([C@@H]6C[C@H](COC)CN6C(=O)[C@@H](NC(=O)OC)C(C)C)[nH]c54)cc2-3)[nH]1 :: 0.107
2) COC(=O)N[C@H](C(=O)N1C[C@@H](C)C[C@H]1c1ncc(-c2ccc3c(c2)COc2cc4c(ccc5nc([C@@H]6C[C@H](C)CN6C(=O)[C@@H](NC(=O)OC)C(C)C)[nH]c54)cc2-3)[nH]1)C(C)C :: 0.27
3) CCC(C)C(NC(=O)OC)C(=O)N1CC(COC)C[C@H]1c1nc2ccc3cc4c(cc3c2[nH]1)OCc1cc(-c2cnc(C3C[C@H](C)CN3C(=O)[C@@H](NC(=O)OC)C(C)CC)[nH]2)ccc1-4 (stereo in doubt) :: 0.563
4) COC[C@H]1C[C@@H](c2ncc(-c3ccc4c(c3)COc3cc5c(ccc6nc([C@@H]7C[C@@H]8C[C@@H]8N7C(=O)[C@@H](NC(=O)OC)C(C)C)[nH]c65)cc3-4)[nH]2)N(C(=O)[C@H](NC(=O)OC)c2ccccc2)C1 :: 0.046
5) CCO[C@H]1C[C@@H](c2nc3ccc4cc5c(cc4c3[nH]2)OCc2cc(-c3cnc([C@@H]4CCCN4C(=O)[C@@H](NC(=O)OC)C(C)C)[nH]3)ccc2-5)N(C(=O)[C@@H](NC(=O)OC)C(C)C)C1 :: 0.265

Inquiry: Specify reported EC50 for the compound shown: CCC(C)[C@H](NC(=O)OC)C(=O)N1C[C@@H](C)CC1c1ncc(-c2ccc3c(c2)COc2cc4c(ccc5nc([C@@H]6CC(COC)CN6C(=O)[C@H](NC(=O)OC)c6ccccc6)[nH]c54)cc2-3)[nH]1 (stereo in doubt)
Reply text: 0.022

Inquiry: Find the measured EC50 of `COC[C@H]1C[C@@H](c2ncc(-c3ccc4c(c3)COc3cc5c(ccc6nc([C@@H]7CC[C@H](C)N7C(=O)[C@@H](NC(=O)OC)C(C)C)[nH]c65)cc3-4)[nH]2)N(C(=O)[C@@H](NC(=O)OC)[C@H](C)OC)C1` and report it.
Reply text: 0.052

Inquiry: Note down EC50 recorded for `COC[C@H]1C[C@@H](c2nc3c([nH]2)-c2cc4c(cc2CC3)-c2ccc(-c3cnc([C@@H]5CCCN5C(=O)[C@@H](NC(=O)OC)C(C)C)[nH]3)cc2CO4)N(C(=O)[C@H](NC(=O)OC)c2ccccc2)C1`
Reply text: 0.039

###

Test system: NS5A chimeric genotype 2a JFH-1 replicon with genotype 2b MD2b-1 strain NS5A gene (M31 present)
EXPERIMENT: microbe, parasite or virus in culture
Assay type: cell-based, HCV
APPLIED_CONDITIONS: Hepatitis C virus, read-out: 2b (s) (nM)
Let's look at some molecules and their measured EC50.
Just so you know, I need the unit written after the number.

Some molecules with known EC50 results, for comparison:
1) COC(=O)N[C@H](C(=O)N1[C@@H](C)CC[C@H]1c1nc2ccc3cc4c(cc3c2[nH]1)OCc1cc(-c2cnc([C@@H]3C[C@H](C)CN3C(=O)[C@H](NC(=O)OC)c3ccccc3)[nH]2)ccc1-4)C(C)C :: 0.011 nM
2) CC[C@H](C)[C@H](NC(=O)OC)C(=O)N1C[C@@H](COC)C[C@H]1c1nc2ccc3cc4c(cc3c2[nH]1)OCc1cc(-c2cnc([C@@H]3CC[C@H](C)N3C(=O)[C@@H](NC(=O)OC)[C@@H](C)CC)[nH]2)ccc1-4 :: 0.416 nM
3) COC(=O)N[C@H](C(=O)N1C[C@@H](C)C[C@H]1c1ncc(-c2ccc3c(c2)COc2cc4c(ccc5nc([C@@H]6C[C@H](C)CN6C(=O)[C@H](NC(=O)OC)c6ccccc6)[nH]c54)cc2-3)[nH]1)C(C)C :: 0.064 nM

Now for another entry.
Inquiry: Tell me its EC50 given `COC(=O)N[C@H](C(=O)N1[C@@H](C)CC[C@H]1c1ncc(-c2ccc3c(c2)COc2cc4c(ccc5nc([C@@H]6CC[C@H](C)N6C(=O)[C@@H](NC(=O)OC)C(C)C)[nH]c54)cc2-3)[nH]1)C(C)C` as the entry.
Reply text: 0.135 nM
